The origin of these recorded values is patent US20250171462A1.

Molecular target: full-length SARM1 (FL-SARM1) (Homo sapiens, UniProt Q6SZW1)
Sequence (Q6SZW1 28-724): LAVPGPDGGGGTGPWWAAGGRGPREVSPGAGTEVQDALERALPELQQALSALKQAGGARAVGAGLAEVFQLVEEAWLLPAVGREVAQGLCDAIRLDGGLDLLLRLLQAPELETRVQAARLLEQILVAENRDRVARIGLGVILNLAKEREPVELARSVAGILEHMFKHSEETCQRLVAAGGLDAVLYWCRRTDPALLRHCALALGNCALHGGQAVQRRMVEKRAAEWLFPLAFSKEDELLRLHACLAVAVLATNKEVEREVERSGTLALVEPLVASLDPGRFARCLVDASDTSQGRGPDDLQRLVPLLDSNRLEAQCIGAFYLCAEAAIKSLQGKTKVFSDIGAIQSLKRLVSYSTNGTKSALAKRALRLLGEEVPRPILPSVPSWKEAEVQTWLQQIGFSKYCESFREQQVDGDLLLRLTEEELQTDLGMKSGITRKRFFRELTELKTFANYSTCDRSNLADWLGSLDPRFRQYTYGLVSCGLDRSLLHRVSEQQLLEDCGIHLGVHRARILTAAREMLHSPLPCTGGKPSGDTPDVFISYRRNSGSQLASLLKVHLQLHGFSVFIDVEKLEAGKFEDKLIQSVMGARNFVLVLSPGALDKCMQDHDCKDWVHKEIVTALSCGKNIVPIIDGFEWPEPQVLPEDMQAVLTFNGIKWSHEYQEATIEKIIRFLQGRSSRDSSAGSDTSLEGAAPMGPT
Assay: FL-SARM1 cellular lysate assay (NAD/NADH-Glo detection of remaining NAD+, NMN-activated)
Settings: Activity (IC50 class), 11 point curve
pIC50: −log10 of the molar value.
Listed below: pIC50 values for each entry.
Outcome measure: pIC50

- Molecule: "Cc1ccc(NC(=O)N2CCOCCC2C)cc1-c1ncc(F)cn1 (racemic)"
  System under test: "full-length SARM1 (FL-SARM1) (Homo sapiens, UniProt Q6SZW1)"
  Observed result: "< 5.00"
- Molecule: "Cc1ccc(NC(=O)C2C3CCC2CC3)cc1-c1ncccn1 (centres unmarked)"
  System under test: "full-length SARM1 (FL-SARM1) (Homo sapiens, UniProt Q6SZW1)"
  Observed result: "5.00 to 6.00"
- Molecule: "Cc1ccc(NC(=O)C2C3CCC2(c2ccccn2)C3)cc1-c1ncc(F)cn1 (mixture of isomers)"
  System under test: "full-length SARM1 (FL-SARM1) (Homo sapiens, UniProt Q6SZW1)"
  Observed result: "5.00 to 6.00"
- Molecule: "Cc1ccc(NC(=O)N2CCCC3C2C3C(F)(F)F)cc1-c1ccccn1 (mixture of isomers)"
  System under test: "full-length SARM1 (FL-SARM1) (Homo sapiens, UniProt Q6SZW1)"
  Observed result: "< 5.00"
- Molecule: "O=C(Nc1ccc(C(F)(F)F)c(-c2ncc(F)cn2)c1)[C@H]1C[C@H]2C[C@H]2N1c1ccccn1"
  System under test: "full-length SARM1 (FL-SARM1) (Homo sapiens, UniProt Q6SZW1)"
  Observed result: "5.00 to 6.00"
- Molecule: "Cc1ccc(NC(=O)C(C)(O)C2CCC2)cc1-c1ccccn1 (racemic)"
  System under test: "full-length SARM1 (FL-SARM1) (Homo sapiens, UniProt Q6SZW1)"
  Observed result: "5.00 to 6.00"
- Molecule: "Cc1ccc(NC(=O)[C@@H]2[C@@H]3CC[C@H]2N(CC(F)(F)F)C3)cc1-c1ccccn1 (single isomer, unassigned) [Example 105]"
  System under test: "full-length SARM1 (FL-SARM1) (Homo sapiens, UniProt Q6SZW1)"
  Observed result: "< 5.00"
- Molecule: "O=C(Nc1cccc(-c2ccccn2)c1)[C@@H]1CC1(F)F"
  System under test: "full-length SARM1 (FL-SARM1) (Homo sapiens, UniProt Q6SZW1)"
  Observed result: "< 5.00"
